- Tested on: Delta-type opioid receptor (Homo sapiens)
- Protocol summary: Activity at human recombinant delta opioid receptor expressed in CHO cells assessed as stimulation of [35S]GTP-gamma-S binding
IC50 strictly less than 7 nM = true. Otherwise false.

Asked: Regarding COc1ccc2c3c1O[C@H]1C(=O)CC[C@@]4(NC(=O)CCCc5ccc(Cl)cc5)[C@@H](C2)N(CC2CC2)CC[C@]314 , kindly confirm whether its IC50 is beneath 7 nM.
Given back: false

Asked: Find out if reported IC50 for O=C(CCCc1ccc(Cl)cc1)N[C@@]12CCC(=O)[C@@H]3Oc4c(O)ccc5c4[C@@]31CCN(CC1CC1)[C@@H]2C5 is less than 7 nM
Given back: true

Asked: Criterion: IC50 strictly below 7 nM. Is it met by COc1ccc2c3c1O[C@H]1C(=O)CC[C@@]4(NCCCCc5ccc(Cl)cc5)[C@@H](C2)N(CC2CC2)CC[C@]314 ?
Given back: false

Asked: Is IC50 strictly under 7 nM for the entry O=C(C/C=C/c1ccc(Cl)cc1)N[C@@]12CCC(=O)[C@@H]3Oc4c(O)ccc5c4[C@@]31CCN(CC1CC1)[C@@H]2C5 ?
Given back: true

Asked: A record lists O=C(Cc1ccc(Cl)cc1)N[C@@]12CCC(=O)[C@@H]3Oc4c(O)ccc5c4[C@@]31CCN(CC1CC1)[C@@H]2C5 . Is its IC50 below 7 nM?
Given back: true

Asked: A record lists COc1ccc2c3c1O[C@H]1C(=O)CC[C@@]4(NC/C=C/Cc5ccc(Cl)cc5)[C@@H](C2)N(CC2CC2)CC[C@]314 . Is its IC50 below 7 nM?
Given back: false

Asked: Confirm or reject: IC50 of COc1ccc2c3c1O[C@H]1C(=O)CC[C@@]4(NC(=O)Cc5ccc(Cl)cc5)[C@@H](C2)N(CC2CC2)CC[C@]314 lies strictly below 7 nM
Given back: false

Asked: Report whether reported IC50 is lower than 7 nM (strictly) for O=C1CC[C@@]2(NC/C=C/Cc3ccc(Cl)cc3)[C@H]3Cc4ccc(O)c5c4[C@@]2(CCN3CC2CC2)[C@H]1O5
Given back: true

Asked: Determine whether this compound shows IC50 lower than 7 nM (ties excluded): COc1ccc2c3c1O[C@H]1C(=O)CC[C@@]4(NC(=O)C/C=C/c5ccc(Cl)cc5)[C@@H](C2)N(CC2CC2)CC[C@]314
Given back: false

Asked: Find out if reported IC50 for O=C(CCc1ccc(Cl)cc1)N[C@@]12CCC(=O)[C@@H]3Oc4c(O)ccc5c4[C@@]31CCN(CC1CC1)[C@@H]2C5 is less than 7 nM
Given back: true

Asked: Given the entry O=C1CC[C@@]2(NCCc3ccc(Cl)cc3)[C@H]3Cc4ccc(O)c5c4[C@@]2(CCN3CC2CC2)[C@H]1O5 , would its reported IC50 be below 7 nM?
Given back: true

Asked: Regarding COc1ccc2c3c1O[C@H]1C(=O)CC[C@@]4(NC(=O)CCc5ccc(Cl)cc5)[C@@H](C2)N(CC2CC2)CC[C@]314 , kindly confirm whether its IC50 is beneath 7 nM.
Given back: true

Asked: Bench note: check whether O=C1CC[C@@]2(NCC/C=C/c3ccc(Cl)cc3)[C@H]3Cc4ccc(O)c5c4[C@@]2(CCN3CC2CC2)[C@H]1O5 shows IC50 below 7 nM
Given back: true

* * *

- Tested on: Delta-type opioid receptor (Homo sapiens, UniProt P41143)
- Sequence (P41143 whole entry): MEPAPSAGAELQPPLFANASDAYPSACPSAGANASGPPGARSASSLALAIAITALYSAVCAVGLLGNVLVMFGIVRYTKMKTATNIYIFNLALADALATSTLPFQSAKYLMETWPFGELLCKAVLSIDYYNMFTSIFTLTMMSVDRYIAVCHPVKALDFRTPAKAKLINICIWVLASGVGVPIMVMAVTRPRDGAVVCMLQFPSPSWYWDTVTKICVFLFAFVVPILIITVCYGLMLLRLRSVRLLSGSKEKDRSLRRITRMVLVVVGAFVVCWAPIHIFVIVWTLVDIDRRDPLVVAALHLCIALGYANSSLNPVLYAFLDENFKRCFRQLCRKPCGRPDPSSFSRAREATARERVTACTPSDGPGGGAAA
- Protocol summary: Activity at human recombinant delta opioid receptor expressed in CHO cells assessed as stimulation of [35S]GTP-gamma-S binding
Metric: pIC50
# pIC50 = -log10(concentration in molar units)

// pIC50 (Delta-type opioid receptor (Homo sapiens, UniProt P41143)) for COc1ccc2c3c1O[C@H]1C(=O)CC[C@@]4(NCC/C=C/c5ccc(Cl)cc5)[C@@H](C2)N(CC2CC2)CC[C@]314 = 6.83

Bench note, Delta-type opioid receptor (Homo sapiens, UniProt P41143): COc1ccc2c3c1O[C@H]1C(=O)CC[C@@]4(NCCc5ccc(Cl)cc5)[C@@H](C2)N(CC2CC2)CC[C@]314 , pIC50 reads 7.20

Delta-type opioid receptor (Homo sapiens, UniProt P41143) data for O=C1CC[C@@]2(NCCCc3ccc(Cl)cc3)[C@H]3Cc4ccc(O)c5c4[C@@]2(CCN3CC2CC2)[C@H]1O5 ; its pIC50: 10.70

Entry O=C1CC[C@@]2(NCCCCc3ccc(Cl)cc3)[C@H]3Cc4ccc(O)c5c4[C@@]2(CCN3CC2CC2)[C@H]1O5 ; assay system Delta-type opioid receptor (Homo sapiens, UniProt P41143); pIC50 recorded at 9.17

Record for O=C(/C=C/c1ccc(Cl)cc1)N[C@@]12CCC(=O)[C@@H]3Oc4c(O)ccc5c4[C@@]31CCN(CC1CC1)[C@@H]2C5 [CLOCINNAMOX] under target or system Delta-type opioid receptor (Homo sapiens, UniProt P41143): pIC50 reported as 9.72

Tested system Delta-type opioid receptor (Homo sapiens, UniProt P41143); pIC50 recorded for COc1ccc2c3c1O[C@H]1C(=O)CC[C@@]4(NCCCc5ccc(Cl)cc5)[C@@H](C2)N(CC2CC2)CC[C@]314 was 8.78

# COc1ccc2c3c1O[C@H]1C(=O)CC[C@@]4(O)[C@@H](C2)N(CC2CC2)CC[C@]314 with Delta-type opioid receptor (Homo sapiens, UniProt P41143): pIC50 is 6.00

* * *

- Tested on: Opioid receptor (mu and kappa) (Cavia porcellus) (UniProt P41144+P97266)
- Sequence (P41144 whole entry, looked up): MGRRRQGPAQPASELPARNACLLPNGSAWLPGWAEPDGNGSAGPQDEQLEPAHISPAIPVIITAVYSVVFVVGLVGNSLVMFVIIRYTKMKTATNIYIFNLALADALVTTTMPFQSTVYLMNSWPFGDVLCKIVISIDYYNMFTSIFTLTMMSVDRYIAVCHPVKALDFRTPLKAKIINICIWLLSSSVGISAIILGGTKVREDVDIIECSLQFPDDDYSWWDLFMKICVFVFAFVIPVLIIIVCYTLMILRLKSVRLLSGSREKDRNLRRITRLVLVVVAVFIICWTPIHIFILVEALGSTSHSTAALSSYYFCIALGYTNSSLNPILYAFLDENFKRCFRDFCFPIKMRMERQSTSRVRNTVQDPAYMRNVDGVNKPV
- Sequence (P97266 whole entry, looked up): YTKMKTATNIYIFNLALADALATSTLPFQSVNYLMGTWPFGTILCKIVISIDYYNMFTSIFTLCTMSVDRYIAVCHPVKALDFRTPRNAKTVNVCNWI
- Protocol summary: Selectivity for guinea pig mu opioid receptor over kappa opioid receptor
- Type: protein assay
Assign class 1 whenever Ratio Ki does not fall below 20; assign class 0 whenever it does.

Asked: Given the entry O=C(CCc1ccc(Cl)cc1)N[C@@]12CCC(=O)[C@@H]3Oc4c(O)ccc5c4[C@@]31CCN(CC1CC1)[C@@H]2C5 , answer whether its Ratio Ki meets or surpasses 20.
Given back: class 0

Asked: Answer whether Ratio Ki of COc1ccc2c3c1O[C@H]1C(=O)CC[C@@]4(NC/C=C/c5ccc(Cl)cc5)[C@@H](C2)N(CC2CC2)CC[C@]314 is greater than or equal to 20.
Given back: class 1

Asked: Textbook exercise: given the entry COc1ccc2c3c1O[C@H]1C(=O)CC[C@@]4(NCCCc5ccc(Cl)cc5)[C@@H](C2)N(CC2CC2)CC[C@]314 , state whether its Ratio Ki is greater than or equal to 20.
Given back: class 1

Asked: Does the reported Ratio Ki for COc1ccc2c3c1O[C@H]1C(=O)CC[C@@]4(NC(=O)CCc5ccc(Cl)cc5)[C@@H](C2)N(CC2CC2)CC[C@]314 fall at or above the 20 mark?
Given back: class 1

Asked: Is the recorded value of Ratio Ki equal to or greater than 20 for this compound? O=C1CC[C@@]2(NCCCc3ccc(Cl)cc3)[C@H]3Cc4ccc(O)c5c4[C@@]2(CCN3CC2CC2)[C@H]1O5
Given back: class 0

* * *

- Tested on: Kappa-type opioid receptor (Homo sapiens, UniProt P41145)
- Sequence (P41145 whole entry): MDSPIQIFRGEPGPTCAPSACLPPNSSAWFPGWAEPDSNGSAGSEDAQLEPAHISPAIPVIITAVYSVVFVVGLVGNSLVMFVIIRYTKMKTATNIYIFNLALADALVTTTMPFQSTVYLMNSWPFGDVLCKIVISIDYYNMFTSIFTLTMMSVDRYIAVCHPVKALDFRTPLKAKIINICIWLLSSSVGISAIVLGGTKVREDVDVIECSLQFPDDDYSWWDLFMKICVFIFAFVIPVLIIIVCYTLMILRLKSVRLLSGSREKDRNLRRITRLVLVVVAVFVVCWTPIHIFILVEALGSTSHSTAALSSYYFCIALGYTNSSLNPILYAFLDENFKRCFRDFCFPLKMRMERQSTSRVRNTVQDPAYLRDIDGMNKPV
- Protocol summary: Displacement of [3H]U-69593 from human recombinant kappa opioid receptor expressed in CHO cells
- Format: cell-based
pKi: −log10 of the molar value.
pKi vs 8: at or above is YES, below is NO.

Asked: Please tell me: is the molecule COc1ccc2c3c1O[C@H]1C(=O)CC[C@@]4(NC(=O)Cc5ccc(Cl)cc5)[C@@H](C2)N(CC2CC2)CC[C@]314 at or over 8 in terms of pKi?
Given back: YES

Asked: Is reported pKi greater than or equal to 8 here: O=C1CC[C@@]2(NCCCCc3ccc(Cl)cc3)[C@H]3Cc4ccc(O)c5c4[C@@]2(CCN3CC2CC2)[C@H]1O5
Given back: YES

Asked: Confirm if pKi reported for the molecule COc1ccc2c3c1O[C@H]1C(=O)CC[C@@]4(NC(=O)/C=C/Cc5ccc(Cl)cc5)[C@@H](C2)N(CC2CC2)CC[C@]314 is 8 or above.
Given back: NO

Asked: Is pKi at least 8? Consider O=C(C/C=C/c1ccc(Cl)cc1)N[C@@]12CCC(=O)[C@@H]3Oc4c(O)ccc5c4[C@@]31CCN(CC1CC1)[C@@H]2C5
Given back: YES

Asked: State whether the measured pKi reaches 8, counting equality as reaching it, for COc1ccc2c3c1O[C@H]1C(=O)CC[C@@]4(O)[C@@H](C2)N(CC2CC2)CC[C@]314
Given back: NO

Asked: I'd appreciate it if you could say whether O=C1CC[C@@]2(NC/C=C/Cc3ccc(Cl)cc3)[C@H]3Cc4ccc(O)c5c4[C@@]2(CCN3CC2CC2)[C@H]1O5 has pKi at least equal to 8.
Given back: YES

Asked: hey, is pKi for this one >= 8? COc1ccc2c3c1O[C@H]1C(=O)CC[C@@]4(NCCCCc5ccc(Cl)cc5)[C@@H](C2)N(CC2CC2)CC[C@]314
Given back: NO

Asked: Record COc1ccc2c3c1O[C@H]1C(=O)CC[C@@]4(NC(=O)C/C=C/c5ccc(Cl)cc5)[C@@H](C2)N(CC2CC2)CC[C@]314 ; criterion: pKi no lower than 8. Met?
Given back: NO

Asked: Answer whether pKi of COc1ccc2c3c1O[C@H]1C(=O)CC[C@@]4(NC/C=C/Cc5ccc(Cl)cc5)[C@@H](C2)N(CC2CC2)CC[C@]314 is greater than or equal to 8.
Given back: NO

Asked: Is it the case that O=C(CCCc1ccc(Cl)cc1)N[C@@]12CCC(=O)[C@@H]3Oc4c(O)ccc5c4[C@@]31CCN(CC1CC1)[C@@H]2C5 has pKi reaching or exceeding 8?
Given back: YES

Asked: Reported pKi at or above 8? O=C1CC[C@@]2(NCC/C=C/c3ccc(Cl)cc3)[C@H]3Cc4ccc(O)c5c4[C@@]2(CCN3CC2CC2)[C@H]1O5
Given back: YES

Asked: Is it the case that COc1ccc2c3c1O[C@H]1C(=O)CC[C@@]4(NCC/C=C/c5ccc(Cl)cc5)[C@@H](C2)N(CC2CC2)CC[C@]314 has pKi reaching or exceeding 8?
Given back: NO

Asked: Reported pKi reaches at least 8 for O=C1CC[C@@]2(NCCc3ccc(Cl)cc3)[C@H]3Cc4ccc(O)c5c4[C@@]2(CCN3CC2CC2)[C@H]1O5 ?
Given back: YES

Asked: Reported pKi reaches at least 8 for O=C(Cc1ccc(Cl)cc1)N[C@@]12CCC(=O)[C@@H]3Oc4c(O)ccc5c4[C@@]31CCN(CC1CC1)[C@@H]2C5 ?
Given back: YES
